System: TAB165
procedure.text: qHTS profiling for inhibitors of Plasmodium falciparum proliferation (AID 504749); note: nearly all actives have a fitted effect of over 60% in size
particulars: P. falciparum in erythrocytes, SYBR Green DNA, 72 h; series mostly up to 28.7 µM
Records with an inconclusive call do not appear. The source made the active and inactive calls. Calls come from the whole dose curve; as a rule, active = well fitted inhibition curve with a large enough effect; inconclusive = small, poorly fitted or top-dose-only effect; inactive = flat fitted curve, though single readings scatter. Peptide text beside a SMILES is read from it.
Possible outcomes: active, inactive

# compound, target, class.assignment
measured = [
    ("CCOC(=O)c1c(C)n(C)c2ccc(O)cc12", "TAB165", "inactive"),
    ("C=CCc1cc(OC)c(O)c(C(=O)NCCO)c1", "TAB165", "inactive"),
    ("Nc1ccc(S(N)(=O)=O)cc1", "TAB165", "inactive"),
    ("O=C1c2ccccc2-c2n[nH]c3cccc1c23", "TAB165", "inactive"),
    ("COc1ccc2cc([C@H](C)C(=O)O)ccc2c1", "TAB165", "inactive"),
    ("Cc1cc2c(s1)Nc1ccccc1N=C2N1CCN(C)CC1", "TAB165", "inactive"),
    ("CN(C)c1ccc2nc3ccc(=[N+](C)C)cc-3sc2c1", "TAB165", "active"),
    ("CC(S)C(=O)NCC(=O)O (stereo unspecified)", "TAB165", "inactive"),
    ("Nc1cc(C(Cl)=C(Cl)Cl)c(S(N)(=O)=O)cc1S(N)(=O)=O", "TAB165", "inactive"),
    ("Cc1cccc(C)c1OCC(=O)N[C@@H](Cc1ccccc1)[C@@H](O)C[C@H](Cc1ccccc1)NC(=O)[C@H](C(C)C)N1CCCNC1=O", "TAB165", "active"),
    ("CN1C(C(=O)Nc2ccccn2)=C(O)c2sccc2S1(=O)=O", "TAB165", "inactive"),
    ("CCCCCCCCOc1ccccc1C(=O)Nc1ccc(C(=O)OCC[N+](C)(CC)CC)cc1", "TAB165", "active"),
    ("CCCCC(CC)COC(=O)C(C#N)=C(c1ccccc1)c1ccccc1 (stereo unspecified)", "TAB165", "active"),
    ("CN1CCC(=C2c3ccccc3CCc3sccc32)CC1", "TAB165", "active"),
    ("Cc1cc(=O)c2c(O)c3c(O)cc(=O)c4c3c3c(cc(O)c1c23)C(C)(C)C=4O", "TAB165", "active"),
    ("Cn1c(NCCN(CCO)CCCc2ccc([N+](=O)[O-])cc2)cc(=O)n(C)c1=O", "TAB165", "inactive"),
    ("Cc1c(OCC(F)(F)F)ccnc1CS(=O)c1nc2ccccc2[nH]1 (stereo unspecified)", "TAB165", "inactive"),
    ("CN(c1nccc(=O)[nH]1)C1CCN(c2nc3ccccc3n2Cc2ccc(F)cc2)CC1", "TAB165", "inactive"),
    ("C[Se]CCC(N)C(=O)O (stereo unspecified)", "TAB165", "inactive"),
    ("O=C(O)c1cc(=O)c2c(OCC(O)COc3cccc4oc(C(=O)O)cc(=O)c34)cccc2o1", "TAB165", "inactive"),
    ("O=C(O)c1cccc(-c2noc(-c3ccccc3F)n2)c1", "TAB165", "inactive"),
    ("O=C(NC(Cc1cc(=O)[nH]c2ccccc12)C(=O)O)c1ccc(Cl)cc1 (stereo unspecified)", "TAB165", "inactive"),
    ("Cc1nc2n(c(=O)c1CCN1CCC(c3noc4cc(F)ccc34)CC1)CCCC2", "TAB165", "inactive"),
    ("CCN(CCO)CCCC(C)Nc1ccnc2cc(Cl)ccc12 (stereo unspecified)", "TAB165", "inactive"),
    ("CN(C)C(=O)COC(=O)Cc1ccc(OC(=O)c2ccc(N=C(N)N)cc2)cc1", "TAB165", "inactive"),
    ("CCc1nc(N)nc(N)c1-c1ccc(Cl)cc1", "TAB165", "active"),
    ("Oc1ccc(OCc2ccccc2)cc1", "TAB165", "inactive"),
    ("CCCCN(CCCC)CCC(O)c1cc2c(Cl)cc(Cl)cc2c2cc(C(F)(F)F)ccc12 (stereo unspecified)", "TAB165", "active"),
    ("O=c1oc2cc(O)ccc2s1", "TAB165", "inactive"),
    ("C[C@H](Cn1cnc2c(N)ncnc21)OCP(=O)(O)O", "TAB165", "inactive"),
    ("CC1(C)CCC(C)(C)c2cc(NC(=O)c3ccc(C(=O)O)cc3)ccc21", "TAB165", "inactive"),
    ("CC(C)c1ccc2oc3nc(N)c(C(=O)O)cc3c(=O)c2c1", "TAB165", "inactive"),
    ("c1ccc2[nH]c(-c3cscn3)nc2c1", "TAB165", "inactive"),
    ("CC(C)[C@H](N)C(=O)OCCOCn1cnc2c(=O)[nH]c(N)nc21", "TAB165", "inactive"),
    ("O=P(O)(O)C(O)(Cn1ccnc1)P(=O)(O)O", "TAB165", "inactive"),
    ("O=C(O)CCNC(=O)c1ccc(N=Nc2ccc(O)c(C(=O)O)c2)cc1", "TAB165", "inactive"),
    ("COc1cc(OC)c(C(=O)CCCN2CCCC2)c(OC)c1", "TAB165", "inactive"),
    ("COc1cc2c(cc1OC)C1CC(=O)C(CC(C)C)CN1CC2 (stereo unspecified)", "TAB165", "inactive"),
    ("C[C@]12CCC(=O)C=C1CC[C@@H]1[C@H]2[C@@H](O)C[C@@]2(C)[C@H]1CC[C@]2(O)C(=O)CO", "TAB165", "inactive"),
    ("CCCCCCCCCCCCCCCCCCCCCCO", "TAB165", "inactive"),
    ("O=C(O)c1cccnc1Nc1cccc(C(F)(F)F)c1", "TAB165", "inactive"),
    ("Cc1nc(Nc2ncc(C(=O)Nc3c(C)cccc3Cl)s2)cc(N2CCN(CCO)CC2)n1", "TAB165", "active"),
    ("Cc1cc(C2CCCCC2)n(O)c(=O)c1", "TAB165", "active"),
    ("O=C(NCCO[N+](=O)[O-])c1cccnc1", "TAB165", "inactive"),
    ("CCC1=C(C)CN(C(=O)NCCc2ccc(S(=O)(=O)NC(=O)NC3CCC(C)CC3)cc2)C1=O (stereo unspecified)", "TAB165", "inactive"),
    ("COC(=O)[C@H](Cc1ccccc1)NC(=O)[C@@H](N)CC(=O)O (H-Asp-Phe-OMe)", "TAB165", "inactive"),
]

* * *

procedure.text: Quantitative High-Throughput drug screen in 47 multiple myeloma cell lines against the NCATS MIPE library collection: RPMI8226_ATCC cell viability assay (AID 1919871); note: nearly all actives have a fitted effect of over 30% in size
particulars: RPMI8226 myeloma viability, CellTiter-Glo ATP luminescence, 48 h; series mostly up to 45.8 µM
Records with an inconclusive call do not appear. Calls of active or inactive are those of the source. The call rests on the fitted dose curve; in most records, active means well fitted cell-killing curve with a large enough effect; inconclusive means small, poorly fitted or top-dose-only effect, or effect the other way; inactive means no such curve, though single readings can be large or run the other way.
Possible outcomes: active, inactive

# compound, class.assignment
measured = [
    ("N[C@@H](Cc1cc(I)c(Oc2cc(I)c(O)c(I)c2)c(I)c1)C(=O)O", "inactive"),
    ("O=c1ccc2ccc(O)c(O)c2o1", "inactive"),
    ("Cc1cc(O)c2c(c1)C(=O)c1cc(O)cc(O)c1C2=O", "active"),
    ("Cc1nccn1CC1CCc2c(c3ccccc3n2C)C1=O (configuration not stated)", "inactive"),
    ("Nc1ncn([C@H]2C[C@H](O)[C@@H](CO)O2)c(=O)n1", "inactive"),
    ("CCOC(=O)c1c(C)n(C)c2ccc(O)cc12", "inactive"),
    ("C[C@H](Cc1ccc(O)c(O)c1)[C@@H](C)Cc1ccc(O)c(O)c1", "active"),
    ("CN(c1nccc(=O)[nH]1)C1CCN(c2nc3ccccc3n2Cc2ccc(F)cc2)CC1", "inactive"),
    ("CNC[C@H](O)c1ccc(O)c(O)c1", "active"),
    ("Nc1nc(Cl)nc2c1ncn2[C@H]1C[C@H](O)[C@@H](CO)O1", "inactive"),
    ("COC1=C(OC)C(=O)C(CCCCCCCCCCO)=C(C)C1=O", "inactive"),
    ("Cc1cccc(C#Cc2ccccc2)n1", "active"),
]

* * *

procedure.text: High-throughput drug toxicity screening in the BPDCN cell line Cal-1 (AID 1224825);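 note: cells exposed to compounds for 48 h; 100% = DMSO and 0% = bortezomib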
particulars: Cal-1 BPDCN cell viability, qHTS; at 45.8 µM (top of the series) unless noted
Text: Blastic plasmacytoid dendritic cell neoplasm (BPDCN) is a rare, aggressive and largely incurable hematologic malignancy originating from plasmacytoid dendritic cells (pDCs). Although an initial response to chemotherapy is common, BPDCN prognosis is extremely poor and most patients relapse with drug-resistant disease leading to a median overall survival of ~1 year after diagnosis. […]
Param label: returns 1.0 when viability (% of control) < 90%, returns 0.0 otherwise, including exact equality.

# molecule, class.assignment
records = [
    ("Cc1nccn1CC1CCc2c(c3ccccc3n2C)C1=O (centres undefined)", 0.0),
    ("CN(C)c1ccc(O)c2c1C[C@H]1C[C@H]3[C@H](N(C)C)C(=O)C(C(N)=O)=C(O)[C@@]3(O)C(=O)C1=C2O", 1.0),
    ("C[C@@H](N)C1CCC(C(=O)Nc2ccncc2)CC1 (some centres undefined)", 1.0),
    ("CC1(C)C(=O)N(CCN2CCC(C(=O)c3ccc(F)cc3)CC2)c2ccccc21", 1.0),
    ("CCCCCCCCOc1ccccc1C(=O)Nc1ccc(C(=O)OCC[N+](C)(CC)CC)cc1", 1.0),
    ("CC(C)(S)[C@@H](N)C(=O)O", 0.0),
    ("CC(=O)O[C@H]1C(=O)[C@@]2(C)C([C@H](OC(=O)c3ccccc3)[C@]3(O)C[C@H](OC(=O)[C@H](O)[C@@H](NC(=O)c4ccccc4)c4ccccc4)C(C)=C1C3(C)C)[C@]1(OC(C)=O)CO[C@@H]1C[C@@H]2O (some centres undefined)", 1.0),
    ("CC(C)C[C@H](NC(=O)[C@H](Cc1ccccc1)NC(=O)c1cnccn1)B(O)O", 1.0),
    ("COc1c(O)cc2c(c1O)[C@@H]1O[C@H](CO)[C@@H](O)[C@H](O)[C@H]1OC2=O", 0.0),
]

Data provenance: PubChem BioAssay (NCATS)
